Molecular target: human recombinant histamine H2 receptor (Homo sapiens, UniProt P25021)
Construct: expressed in transfected cells; host or cells: CHO-K1 cells
Sequence (P25021 whole entry): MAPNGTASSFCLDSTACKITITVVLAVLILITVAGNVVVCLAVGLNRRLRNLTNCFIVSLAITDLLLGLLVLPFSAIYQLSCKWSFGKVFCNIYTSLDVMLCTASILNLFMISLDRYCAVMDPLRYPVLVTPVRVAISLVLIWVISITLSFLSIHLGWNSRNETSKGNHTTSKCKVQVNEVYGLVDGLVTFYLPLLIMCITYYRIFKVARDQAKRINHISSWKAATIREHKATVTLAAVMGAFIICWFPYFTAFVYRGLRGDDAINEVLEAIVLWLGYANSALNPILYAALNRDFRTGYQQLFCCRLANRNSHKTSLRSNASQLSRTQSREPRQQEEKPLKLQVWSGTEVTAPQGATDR
Assay: Histamine H2 radioligand binding ([125I]Aminopotentidine)
Conditions: 0.3 μM compound; 0.1 nM [125I]Aminopotentidine; read-out: Histamine Binding H2, percent inhibition of specific binding
Procedure: Non-specific binding was estimated in the presence of 3 μM Tiotidine. […] Biochemical assay results are presented as the percent inhibition of specific binding in Table 5. Non-specific binding was estimated in the presence of 3 μM Tiotidine. […] Compounds were screened at 1 μM, using 1% DMSO as vehicle. Biochemical assay results are presented as the percent inhibition of specific binding in Table 6.
Please respond with reported inhibition at 0.3 µM for every item in the list.
Supply the numeric figure in %, leaving out any unit text.

# input molecule: CN1CCc2c(c3ccccc3n2CCc2ccccc2)C1 ; wanted: its inhibition at 0.3 µM
56

Tell me the measured inhibition at 0.3 µM of Cc1ccc2c(c1)c1c(n2CCc2ccccc2)CCN(C)C1 , please.
51

Look up inhibition at 0.3 µM: CCN1CCc2c(c3cc(C)ccc3n2CCc2ccccc2)C1
22

Using the record for Cc1ccc(CCn2c3c(c4cc(C)ccc42)CN(C)CC3)cc1 , report its inhibition at 0.3 µM.
75

Recorded inhibition at 0.3 µM of CCN1CCc2c(c3cc(C)ccc3n2CCc2ccc(C)cc2)C1 , please.
34

Can you share its inhibition at 0.3 µM? I mean this molecule: CCN1CCc2c(c3ccccc3n2CCc2ccccc2)C1
34

What does the record list as inhibition at 0.3 µM for Cc1ccc2c(c1)c1c(n2CCc2ccncc2)CCN(C)C1 ?
29

Bench note: what inhibition at 0.3 µM did Cc1ccc(CCn2c3c(c4ccccc42)CN(C)CC3)cc1 show?
57

----------
molecular target: human recombinant serotonin (5-Hydroxytryptamine) 5-HT2A receptor (Homo sapiens, UniProt P28223); construct: expressed in transfected cells; host or cells: CHO-K1 cells; assay: Serotonin 5-HT2A radioligand binding ([3H]Ketanserin); conditions: percent inhibition of specific binding
Sequence (P28223 whole entry): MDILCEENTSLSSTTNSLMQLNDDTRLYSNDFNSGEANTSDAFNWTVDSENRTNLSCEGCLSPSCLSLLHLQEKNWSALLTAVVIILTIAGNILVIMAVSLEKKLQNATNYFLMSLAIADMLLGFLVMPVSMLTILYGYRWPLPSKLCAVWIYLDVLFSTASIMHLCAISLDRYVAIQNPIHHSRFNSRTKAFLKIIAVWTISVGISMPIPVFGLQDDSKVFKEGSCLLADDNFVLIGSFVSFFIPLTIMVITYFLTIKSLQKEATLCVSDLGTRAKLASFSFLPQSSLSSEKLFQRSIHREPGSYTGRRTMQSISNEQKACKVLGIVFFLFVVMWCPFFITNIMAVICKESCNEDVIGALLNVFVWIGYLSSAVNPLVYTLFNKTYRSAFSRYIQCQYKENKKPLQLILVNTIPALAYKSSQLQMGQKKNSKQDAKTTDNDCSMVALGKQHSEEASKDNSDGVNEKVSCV
metric_name: Inhibition of ligand binding, Ser. 5-HT2A (%)
Numeric answer only, unit % assumed.

Recorded Inhibition of ligand binding, Ser. 5-HT2A for Cc1ccc2c(c1)c1c(n2CCCc2ccccn2)CCN(C)C1 [Compound 233] , please?
92

Reported Inhibition of ligand binding, Ser. 5-HT2A for Cc1ccc(CCn2c3c(c4cc(Cl)c(F)cc42)CN(C)CC3)cn1 [Compound 404] : what is it?
88

What value of Inhibition of ligand binding, Ser. 5-HT2A has been recorded for this entry: Cc1ccc2c(c1)c1c(n2CCc2ccc(C(F)(F)F)nc2)CCN(C)C1 [Compound 68]
98

Bench note: what Inhibition of ligand binding, Ser. 5-HT2A did Cc1ccc2c(c1)c1c(n2CCc2ccc(C)[n+]([O-])c2)CCN(C)C1 [Compound 394] show?
3

// Inhibition of ligand binding, Ser. 5-HT2A lookup, key: CN1CCc2c(c3cc(Cl)ccc3n2CCc2ccc(Cl)cc2)C1 [Compound 45]
100

Consider the compound CN1CCc2c(c3ccccc3n2CCc2ccccc2)C1 [Compound 2] and give its measured Inhibition of ligand binding, Ser. 5-HT2A.
96

Which measured Inhibition of ligand binding, Ser. 5-HT2A value corresponds to CN1CCc2c(c3cc(C(F)(F)F)ccc3n2CCc2ccccc2)C1 [Compound 80] ?
88

What Inhibition of ligand binding, Ser. 5-HT2A value was documented for this compound, CN1CCc2c(c3cc(Cl)c(F)cc3n2CCc2ccc(C(F)(F)F)nc2)C1 [Compound 343] ?
89

Look at this compound and give its reported Inhibition of ligand binding, Ser. 5-HT2A. Cc1ccc2c(c1)c1c(n2CC(=O)N2CCCCC2)CCN(C)C1 [Compound 395]
16

Inhibition of ligand binding, Ser. 5-HT2A for Cc1ccc(CCn2c3c(c4cc(C(F)(F)F)ccc42)CN(C)CC3)cc1 [Compound 47] ?
92

Entry CN1CCc2c(c3cccc(Cl)c3n2CCc2ccccc2)C1 [Compound 83] : reported Inhibition of ligand binding, Ser. 5-HT2A = ?
100

Look up Inhibition of ligand binding, Ser. 5-HT2A: CCN1CCc2c(c3ccccc3n2CCc2ccncc2)C1 [Compound 5]
55

What does the data say about its Inhibition of ligand binding, Ser. 5-HT2A? Entry: Cc1ccc(Cn2c3c(c4ccccc42)CN(C)CC3)cn1 [Compound 17]
−7

What does the record list as Inhibition of ligand binding, Ser. 5-HT2A for CCc1ccc2c(c1)c1c(n2CCc2ccc(C(F)(F)F)nc2)CCN(C)C1 [Compound 358] ?
95

Data request, read-out Inhibition of ligand binding, Ser. 5-HT2A, for Cc1ccc2c(c1)c1c(n2CCc2ccc(OC(C)(C)C)cc2)CCN(C)C1 [Compound 335]
97

----------
Exercise: state measured Inhibition of ligand binding, Ser. 5-HT2C for each of the molecules provided.
Biological target: human recombinant serotonin (5-Hydroxytryptamine) 5-HT2C receptor (Homo sapiens, UniProt P28335)
Construct: expressed in transfected cells; host or cells: CHO-K1 cells
Sequence (P28335 33-458): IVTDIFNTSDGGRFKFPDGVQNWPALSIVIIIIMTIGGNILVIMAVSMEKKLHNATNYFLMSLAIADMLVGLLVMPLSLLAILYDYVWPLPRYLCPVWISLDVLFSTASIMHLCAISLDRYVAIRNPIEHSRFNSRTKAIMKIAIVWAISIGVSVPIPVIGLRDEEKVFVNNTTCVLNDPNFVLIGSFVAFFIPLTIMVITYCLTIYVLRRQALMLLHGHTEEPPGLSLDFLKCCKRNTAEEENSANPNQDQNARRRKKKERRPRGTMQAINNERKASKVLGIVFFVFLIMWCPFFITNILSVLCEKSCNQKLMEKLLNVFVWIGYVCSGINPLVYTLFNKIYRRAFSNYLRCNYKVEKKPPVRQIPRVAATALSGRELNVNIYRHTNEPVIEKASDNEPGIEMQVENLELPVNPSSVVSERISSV
Experiment: Serotonin 5-HT2C radioligand binding ([3H]Mesulergine)
Design: concentration or dose not given beside the values
Settings: percent inhibition of specific binding
Provide only the numeric value, understood in %.

Which value of Inhibition of ligand binding, Ser. 5-HT2C has been reported for CCOc1ccc(CCn2c3c(c4cc(C)ccc42)CN(C)CC3)cc1 in the records?
97

I'd like to know its Inhibition of ligand binding, Ser. 5-HT2C. The molecule in question is Cc1ccc2c(c1)c1c(n2CC(=O)N2CCCCC2)CCN(C)C1
50

Need Inhibition of ligand binding, Ser. 5-HT2C, item Cc1ccc2c(c1)c1c(n2CCc2ccc(C)nc2)CCNC1
36

Can you look up the measured Inhibition of ligand binding, Ser. 5-HT2C of Cc1ccc2c(c1)c1c(n2CCc2cncnc2)CCN(C)C1 for me?
76

Consider the molecule Cc1ccc(CCn2c3c(c4cc(C(=O)O)ccc42)CN(C)CC3)cn1 and give its measured Inhibition of ligand binding, Ser. 5-HT2C.
0

Form field: reported Inhibition of ligand binding, Ser. 5-HT2C of CCCc1ccc(CCn2c3c(c4cc(Cl)ccc42)CN(C)CC3)cn1
96

Name the reported Inhibition of ligand binding, Ser. 5-HT2C value associated with the molecule CCN1CCc2c(c3ccccc3n2CCc2ccccn2)C1
34

// Inhibition of ligand binding, Ser. 5-HT2C lookup, key: Cc1ccc2c(c1)c1c(n2CC(C)c2ccc(F)cc2)CCN(C)C1 (centres unmarked)
99

I would be grateful if you could share the reported Inhibition of ligand binding, Ser. 5-HT2C for CCN1CCc2c(c3ccccc3n2CCc2ccccc2)C1 .
94

Tell me the measured Inhibition of ligand binding, Ser. 5-HT2C of Cc1ccc2c(c1)c1c(n2CCc2ccc(C(=O)O)nc2)CCNC1 , please.
6

Returns the measured Inhibition of ligand binding, Ser. 5-HT2C for the input molecule. Input: Cc1cccc2c3c(n(CCc4ccc(C(F)(F)F)nc4)c12)CCN(C)C3
70

Return reported Inhibition of ligand binding, Ser. 5-HT2C; argument: CN1CCc2c(c3cc(Cl)ccc3n2CCC(=O)N2CCCCC2)C1
31

Recorded Inhibition of ligand binding, Ser. 5-HT2C for CCOC(=O)N1CCc2c(c3cc(-c4cccnc4)ccc3n2CCc2ccc(C)nc2)C1 , please?
−17

Data request, read-out Inhibition of ligand binding, Ser. 5-HT2C, for Cc1ccc(CCn2c3c(c4ccccc42)CN(C)CC3)cc1
95

Entry Cc1ccc2c(c1)c1c(n2CCc2ccncc2)CCN(C)C1 : reported Inhibition of ligand binding, Ser. 5-HT2C = ?
87

Field request: Inhibition of ligand binding, Ser. 5-HT2C | item: CCCc1ccc(CCn2c3c(c4cc(C)ccc42)CN(C)CC3)cn1
93

Look up Inhibition of ligand binding, Ser. 5-HT2C: Cc1ccc2c(c1)c1c(n2CC(=O)N2CCCC2)CCN(C)C1
47

Item under review: CC(=O)N1CCN(C(=O)Cn2c3c(c4cc(Cl)ccc42)CN(C)CC3)CC1 . Reported Inhibition of ligand binding, Ser. 5-HT2C?
11

Can you look up the measured Inhibition of ligand binding, Ser. 5-HT2C of CC(C)c1ccc2c(c1)c1c(n2CCc2ccc(C(F)(F)F)nc2)CCN(C)C1 for me?
73

Which Inhibition of ligand binding, Ser. 5-HT2C value belongs to CCN1CCc2c(c3ccccc3n2Cc2ccccc2)C1 ?
5

Name the recorded Inhibition of ligand binding, Ser. 5-HT2C for Cc1ccc2c(c1)c1c(n2CCc2ccccn2)CCN(C)C1 .
87

Which Inhibition of ligand binding, Ser. 5-HT2C is reported for this molecule? CCN1CCc2c(c3cc(C)ccc3n2Cc2ccc(C)nc2)C1
5

Form field: reported Inhibition of ligand binding, Ser. 5-HT2C of Cc1ccc2c(c1)c1c(n2CCc2cnccn2)CCN(C)C1
88

GET /values?readout=Inhibition of ligand binding, Ser. 5-HT2C&item= Cc1ccc2c(c1)c1c(n2CC(=O)N2CCSCC2)CCN(C)C1
73

Data request, read-out Inhibition of ligand binding, Ser. 5-HT2C, for CCN1CCc2c(c3ccccc3n2CCc2ccncc2)C1
9

Which measured Inhibition of ligand binding, Ser. 5-HT2C value corresponds to Cc1ccc2c(c1)c1c(n2CCc2ccc(C)nc2)CCN(C2CC2)C1 ?
2

Where do these numbers come from? They come from patent US9096591B2.
